- measuredOn: CCK receptor (Rattus norvegicus, UniProt P30551)
- Construct: The whole pancreas was dissected free of fat tissue and was homogenized
- Sequence (P30551 whole entry): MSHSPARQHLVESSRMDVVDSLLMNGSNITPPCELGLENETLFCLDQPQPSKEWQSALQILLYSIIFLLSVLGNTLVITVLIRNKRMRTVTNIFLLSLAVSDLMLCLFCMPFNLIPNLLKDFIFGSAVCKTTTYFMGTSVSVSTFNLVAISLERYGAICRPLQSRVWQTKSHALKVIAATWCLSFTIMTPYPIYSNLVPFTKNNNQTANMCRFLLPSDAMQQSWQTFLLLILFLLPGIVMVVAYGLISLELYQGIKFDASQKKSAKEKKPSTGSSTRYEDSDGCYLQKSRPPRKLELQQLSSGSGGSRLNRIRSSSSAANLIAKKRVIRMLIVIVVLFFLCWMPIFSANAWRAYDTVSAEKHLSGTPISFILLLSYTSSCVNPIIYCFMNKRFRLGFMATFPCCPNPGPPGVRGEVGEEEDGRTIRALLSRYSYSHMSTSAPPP
- experiment: CCK receptor binding (inhibition of specific 125I-CCK-33 binding to whole pancreas membranes)
- protocolConditions: estimated; 125I-CCK-33 receptor binding; read-out: Ki value (dissociation constant of inhibitor)
quantityMeasured: pKi
Numbers only, as −log10 of the molar value.

Query string: Print CCK receptor (Rattus norvegicus, UniProt P30551) pKi for `CC(C)C[C@@H]1N[C@H]2N(C1=O)c1ccccc1[C@@]2(O)C[C@@H]1NC(=O)c2ccccc2-n2c1nc1ccccc1c2=O` .
Result string: 6.05
